- Tested on: RAW-Dual (murine macrophage reporter line)
- Protocol Details: NF-kB reporter (SEAP) activity fold change vs agonist alone; higher = enhanced NF-kB activity
- Condition Set: modulator concentration 10 µM; agonist: CpG ODN 1826 0.5 ug/mL
Threshold rule: NF-kB reporter greater than or equal to 1 is y; below that, n.

- COC(=O)Nc1nc2cc(S(=O)c3ccccc3)ccc2[nH]1 (stereo not given) [Prestw-1459]: y
- Cc1ccc(C)n1-c1ccc(C(=O)OCC(=O)c2ccc([N+](=O)[O-])cc2)cc1: n
- COc1cc(NC(=O)NCc2nc(C)cc(N3CCOCC3)n2)cc(OC)c1: y

Hello, I need to know if `C=CCn1c(-c2ccc(OC)cc2)cnc1SCC(=O)N1CCc2ccccc21` has measured NF-kB reporter not below 1. Thanks!
n

Hello, I need to know if `O=C1CN(/N=C/c2ccc([N+](=O)[O-])o2)C(=O)N1` has measured NF-kB reporter not below 1. Thanks!
y
